- testTarget: T1, Bcl-2, P10415
- T1 chain: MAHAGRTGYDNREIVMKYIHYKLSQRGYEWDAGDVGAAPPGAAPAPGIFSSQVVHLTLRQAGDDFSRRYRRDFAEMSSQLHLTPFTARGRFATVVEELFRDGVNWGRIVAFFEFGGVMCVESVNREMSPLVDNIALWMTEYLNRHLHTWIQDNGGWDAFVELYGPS
- assayExplanation: fluorescence polarisation, direct titration of receptor into 10 nM labelled peptide
attributeMeasured: log10 of Kd (log10 of the value in nM)
Values reflect log10 of reported Kd (nM).

Observe how each entry below is paired with its result.
# binder, log10 of Kd
measured = [
    ("FKAWGKFGGAFCRYADEMKEIQERQR [PURB]", 1.53),
    ("PAKKMTLSEIYRWICDNFPYYKNAGI [FOXJ2]", 2.11),
    ("VDSIRPKCQELRHLCDQFSAEIARRR [MCF2L]", 0.78),
]

// for each binder below, give its log10 of Kd
1. RYPILENPEILRKTADDFLNRIALTD [CCNH]
2. RVCPYYLSRNLKQQADIIFMPYNYLL [RTEL1]
3. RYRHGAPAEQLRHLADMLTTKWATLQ [PLEKHH1]
4. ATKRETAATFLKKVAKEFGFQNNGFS [NPLOC4]
5. TRELQELARKLQELADASENLLTENT [TXNDC11]
6. LCQLSCVSKLMRDVCGSLLQSRGMVI [FBXO30]
7. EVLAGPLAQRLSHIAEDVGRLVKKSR [ARHGAP4]
8. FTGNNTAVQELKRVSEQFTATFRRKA [TUBB4Q]

1: 3.85; 2: 2.53; 3: 3.18; 4: 3.31; 5: 1.93; 6: 3.41; 7: 3.78; 8: 3.15

// for each binder below, give its log10 of Kd
1. EEIIHKLAMQLRHIGDNIDHRMVRED [PXT1]
2. TVATRRLSGFLRTLADRLEGTKELLS [MINA]
3. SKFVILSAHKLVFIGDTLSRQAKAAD [BCAR1]
4. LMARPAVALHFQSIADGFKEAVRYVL [SOS2]
5. AIILCNVCGNLCTDCDRFLHLHRRTK [MYCBP2]
6. ISSYMVLAPVFGYLGDRYNRKYLMCG [SPNS1]
7. LRGSGAWGLLLRRVGDDVLVHLLARC [TERT]

1. 1.15
2. 2.42
3. 3.48
4. 3.52
5. 3.07
6. 1.45
7. 1.69
